Record form. Attribute: inhibition. Fill in for each entry.
target.under.test: Sphingosine kinase 1 (Homo sapiens);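 also: mean SPHK1 inhibition value reported from the GSK PKIS kinase panel screen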
cond: at 1 µM
Numbers only, in %.

INSERT INTO assay_data (compound, target_under_test, reading_unit, readout_value) VALUES
  ('Nc1nc(-c2ccc(F)cc2)c(-c2ccc3ncccc3n2)s1', 'Sphingosine kinase 1 (Homo sapiens)', '%', -1.38),
  ('COc1cc2ncn(-c3cc(OCc4ccccc4C(F)(F)F)c(C(=O)N(C)C)s3)c2cc1OC', 'Sphingosine kinase 1 (Homo sapiens)', '%', -3.72),
  ('Fc1cccc(COc2ccc(Nc3ncnc4sc(-c5ccco5)cc34)cc2Cl)c1', 'Sphingosine kinase 1 (Homo sapiens)', '%', -6.23),
  ('CCn1c(-c2nonc2N)nc2cnc(Oc3cccc(NC(=O)c4ccc(N(C)C)cc4)c3)cc21', 'Sphingosine kinase 1 (Homo sapiens)', '%', -3.07);

Field: inhibition. Fill in for each record below.
1. CNC(=O)c1cncc(/C=C/c2ccccc2Cl)c1
2. CCCN1CCC(c2ccc(Nc3nc(Nc4cc(F)ccc4C(N)=O)c4cc[nH]c4n3)c(OC)c2)CC1
3. CC(C)(CO)CNC(=O)c1ccc2c(c1)/C(=N/Nc1ccc(S(N)(=O)=O)cc1)C(=O)N2

Result:
[-2.41, -2.44, 0.62]

###

Tested on: Epidermal growth factor receptor (Homo sapiens), P00533 [T790M]
Sequence (P00533 whole entry T790M): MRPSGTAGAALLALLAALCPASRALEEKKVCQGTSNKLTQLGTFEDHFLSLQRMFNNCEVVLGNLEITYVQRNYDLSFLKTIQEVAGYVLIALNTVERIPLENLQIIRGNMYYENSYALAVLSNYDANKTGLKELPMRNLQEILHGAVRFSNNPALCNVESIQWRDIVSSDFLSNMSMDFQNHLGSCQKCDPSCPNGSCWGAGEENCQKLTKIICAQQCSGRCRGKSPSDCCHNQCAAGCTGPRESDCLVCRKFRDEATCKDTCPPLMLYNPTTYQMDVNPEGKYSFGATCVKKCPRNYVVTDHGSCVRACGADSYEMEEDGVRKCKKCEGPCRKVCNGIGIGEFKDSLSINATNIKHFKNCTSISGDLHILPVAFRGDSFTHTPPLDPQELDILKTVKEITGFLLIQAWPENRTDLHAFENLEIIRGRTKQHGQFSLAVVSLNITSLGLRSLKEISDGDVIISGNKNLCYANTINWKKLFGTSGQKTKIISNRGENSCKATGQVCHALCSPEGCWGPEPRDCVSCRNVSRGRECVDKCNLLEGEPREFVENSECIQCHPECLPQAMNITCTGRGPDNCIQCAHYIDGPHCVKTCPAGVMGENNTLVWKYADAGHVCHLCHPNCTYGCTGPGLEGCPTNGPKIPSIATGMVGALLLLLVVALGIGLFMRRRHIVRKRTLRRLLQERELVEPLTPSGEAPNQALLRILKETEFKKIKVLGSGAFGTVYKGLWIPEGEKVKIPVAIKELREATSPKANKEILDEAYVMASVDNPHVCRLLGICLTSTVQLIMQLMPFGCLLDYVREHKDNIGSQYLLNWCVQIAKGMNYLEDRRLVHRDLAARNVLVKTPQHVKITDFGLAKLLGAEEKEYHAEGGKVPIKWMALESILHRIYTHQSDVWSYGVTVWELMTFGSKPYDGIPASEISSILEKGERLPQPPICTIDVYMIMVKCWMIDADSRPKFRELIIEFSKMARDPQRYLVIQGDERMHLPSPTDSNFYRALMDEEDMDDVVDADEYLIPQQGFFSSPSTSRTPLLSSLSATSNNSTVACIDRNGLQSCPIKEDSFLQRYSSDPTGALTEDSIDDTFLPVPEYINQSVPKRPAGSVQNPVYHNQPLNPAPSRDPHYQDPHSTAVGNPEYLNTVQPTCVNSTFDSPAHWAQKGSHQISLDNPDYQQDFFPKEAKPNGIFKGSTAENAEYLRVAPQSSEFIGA
cond: at 1 µM
Record form. Attribute: inhibition. Fill in for each entry.
Remember to quote the unit after the number.

Below: 4 molecules and their reported inhibition.
INSERT INTO results (compound_string, readout_value) VALUES
  ('CC(=O)NCc1cccc(C#Cc2cncnc2Nc2ccc(OCc3cccc(F)c3)c(Cl)c2)c1', '0.3%'),
  ('Nc1nc(-c2cccc(Cl)c2)c(-c2ccc3ncccc3n2)s1', '6.65%'),
  ('Cc1ccc2c(-c3ccnc(Nc4ccccc4)n3)c(-c3ccc(F)cc3)nn2n1', '51.1%'),
  ('CCn1c(-c2nonc2N)nc2c(C#CC(C)(C)O)ncc(OC3CCNCC3)c21', '1.16%');

Please examine the following record next.
Query: Need inhibition of COc1cccc(-c2c[nH]c3c(N/N=C/c4ccncc4)ncnc23)c1 , thanks.
Result: 2.55%

###

Record form. Attribute: inhibition. Fill in for each entry.
target.under.test: Tyrosine-protein kinase SYK (Homo sapiens) (UniProt P43405)
cond: at 1 µM
Description: GSK_PKIS: SYK mean inhibition at 1 uM [Nanosyn]
Answers are plain numbers, in %.

Below: 3 compounds and their reported inhibition.
INSERT INTO results (compound, assay_endpoint, readout_value) VALUES
  ('CCCN(CCS(C)(=O)=O)Cc1ccc(-c2ccc3ncnc(Nc4ccc(OCc5cccc(F)c5)c(Cl)c4)c3c2)o1', 'inhibition', 1.17),
  ('COc1ccc(-c2cc3c(N)ncnc3o2)cc1', 'inhibition', -0.57),
  ('CS(=O)(=O)CCNCc1coc(-c2ccc3ncnc(Nc4ccc(OCc5ccccc5)cc4)c3c2)c1', 'inhibition', 3.66);

Field: inhibition. Fill in for each record below.
1. COc1cc(N2CCN(C(C)C)CC2)ccc1Nc1nc(Nc2ccc(F)cc2C(N)=O)c2cc[nH]c2n1
2. CCCN1CCC(c2ccc(Nc3nc(Nc4cc(F)ccc4C(N)=O)c4cc[nH]c4n3)c(OC)c2)CC1
3. COc1cc(/C=N/Nc2ncnc3[nH]ncc23)ccc1O

Result:
35.9
73.4
14.2

###

target.under.test: Dual specificity protein kinase CLK2 (Homo sapiens) (UniProt P49760)
Sequence (P49760 whole entry, looked up): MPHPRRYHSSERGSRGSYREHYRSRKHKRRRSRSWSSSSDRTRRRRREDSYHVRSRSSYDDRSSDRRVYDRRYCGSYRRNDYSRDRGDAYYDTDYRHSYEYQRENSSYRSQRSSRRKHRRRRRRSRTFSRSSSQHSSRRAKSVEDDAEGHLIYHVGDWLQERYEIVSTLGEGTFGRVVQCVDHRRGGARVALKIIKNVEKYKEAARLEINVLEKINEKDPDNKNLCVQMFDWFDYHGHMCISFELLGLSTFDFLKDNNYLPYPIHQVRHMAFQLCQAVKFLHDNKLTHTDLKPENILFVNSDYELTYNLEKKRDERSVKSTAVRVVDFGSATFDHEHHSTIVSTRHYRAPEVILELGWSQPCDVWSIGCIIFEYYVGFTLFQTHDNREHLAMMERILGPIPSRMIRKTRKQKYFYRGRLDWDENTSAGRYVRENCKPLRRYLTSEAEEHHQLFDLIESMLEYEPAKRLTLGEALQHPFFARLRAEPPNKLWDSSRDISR
cond: at 0.1 µM
Description: GSK_PKIS: CLK2 mean inhibition at 0.1 uM [Nanosyn]
assay.endpoint: inhibition (%)
Give bare numbers, in %.

Below: 10 compounds and their reported inhibition.
INSERT INTO measurements (compound_string, readout_value) VALUES
  ('COC(=O)Nc1nc2ccc(Oc3ccc(NC(=O)Nc4cccc(Cl)c4)cc3)cc2[nH]1', -1.9),
  ('CCN(CC)S(=O)(=O)c1ccc(OC)c(Nc2ncc(-c3ccccc3)o2)c1', 4.15),
  ('N#Cc1c(NC(=O)c2ccc(F)cc2)sc2c1CCCC2', -1),
  ('NC(=O)c1sc(-n2cnc3ccc(C(F)(F)F)cc32)cc1OCc1ccccc1Br', 3.14),
  ('CCc1nn2ncccc2c1-c1ccnc(NC2CC2)n1', 0.1),
  ('CN(C)CCOc1ccc(-c2nc(-c3ccncc3)c(-c3ccc4c(c3)CC/C4=N\O)[nH]2)cc1', -1.13),
  ('Cc1cccc2c1NC(=O)/C2=N\Nc1ccc(S(N)(=O)=O)cc1', 1.48),
  ('Fc1ccc(-c2cc(-c3c[nH]nc3-c3ccccn3)ccn2)cc1', 2.53),
  ('CCCN1CCC(c2ccc(Nc3nc(Nc4cc(F)ccc4C(N)=O)c4cc[nH]c4n3)c(OC)c2)CC1', 59.1),
  ('COc1ccc2c(-c3ccnc(Nc4cccc(OC(F)(F)F)c4)n3)cnn2n1', 95.4);

Field: inhibition. Fill in for each record below.
1. COc1cc(Nc2nccc(Nc3ccc4c(C)n[nH]c4c3)n2)cc(OC)c1OC
2. NS(=O)(=O)c1ccc(Nc2ncc(-c3ccccc3)o2)cc1
3. COc1ccc(CNC(=O)c2ccc(-c3cc(-c4nnc(C)o4)ccc3C)cc2)cc1
4. CCCN(CCS(C)(=O)=O)Cc1ccc(-c2ccc3ncnc(Nc4ccc(OCc5cccc(F)c5)c(Cl)c4)c3c2)o1
5. CC(=O)Nc1cccc(C#Cc2cncnc2Nc2ccc(OCc3cccc(F)c3)c(Cl)c2)c1
6. NS(=O)(=O)c1ccc(N/N=C2\C(=O)Nc3ccc4ncccc4c32)cc1
7. Nc1ncc(-c2cccc(S(N)(=O)=O)c2)c2scc(-c3ccc(F)c(Cl)c3)c12

Result:
1. 1.62
2. 1.81
3. 0.99
4. 1.46
5. 2.3
6. 19.3
7. 2.7

###

target.under.test: Phosphatidylinositol 4,5-bisphosphate 3-kinase catalytic subunit delta isoform (Homo sapiens) (UniProt O00329);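 also: values are mean percent inhibition of PI3K-delta, part of the GSK PKIS screen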
Sequence (whole entry): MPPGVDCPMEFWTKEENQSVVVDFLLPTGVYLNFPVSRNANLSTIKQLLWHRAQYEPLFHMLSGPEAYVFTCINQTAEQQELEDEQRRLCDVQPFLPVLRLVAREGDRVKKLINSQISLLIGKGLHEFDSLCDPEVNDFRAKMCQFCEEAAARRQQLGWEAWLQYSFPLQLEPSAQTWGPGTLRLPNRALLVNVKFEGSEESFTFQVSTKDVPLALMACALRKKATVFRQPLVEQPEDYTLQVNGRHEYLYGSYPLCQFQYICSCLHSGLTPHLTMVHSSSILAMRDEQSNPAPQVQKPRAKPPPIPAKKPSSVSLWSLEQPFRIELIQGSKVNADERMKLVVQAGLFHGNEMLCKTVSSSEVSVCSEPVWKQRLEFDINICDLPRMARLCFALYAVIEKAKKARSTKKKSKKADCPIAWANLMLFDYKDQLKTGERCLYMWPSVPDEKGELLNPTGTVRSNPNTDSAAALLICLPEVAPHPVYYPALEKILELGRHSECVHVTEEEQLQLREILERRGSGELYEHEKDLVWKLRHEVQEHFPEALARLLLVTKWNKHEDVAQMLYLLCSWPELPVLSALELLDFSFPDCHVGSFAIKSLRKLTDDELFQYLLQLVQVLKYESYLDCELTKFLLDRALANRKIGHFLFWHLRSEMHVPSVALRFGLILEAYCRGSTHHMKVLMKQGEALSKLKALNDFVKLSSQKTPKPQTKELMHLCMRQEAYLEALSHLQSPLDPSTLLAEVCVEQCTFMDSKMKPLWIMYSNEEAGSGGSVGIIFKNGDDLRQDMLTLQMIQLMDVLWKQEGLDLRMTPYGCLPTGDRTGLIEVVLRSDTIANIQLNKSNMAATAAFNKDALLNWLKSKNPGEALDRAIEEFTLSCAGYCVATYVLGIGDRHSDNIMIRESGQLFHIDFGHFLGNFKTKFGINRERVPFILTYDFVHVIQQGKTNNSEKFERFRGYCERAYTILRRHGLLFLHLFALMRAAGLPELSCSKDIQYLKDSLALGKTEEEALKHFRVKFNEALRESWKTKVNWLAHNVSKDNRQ
cond: at 0.1 µM
assay.endpoint: inhibition (%)
One number for each entry, in %.

INSERT INTO measurements (compound_string, reading_unit, readout_value) VALUES
  ('Clc1ccc(-c2nn3ncccc3c2-c2ccnc(Nc3ccccc3)n2)cc1', '%', 4.92),
  ('CNC(=O)c1cncc(/C=C/c2ccccc2Cl)c1', '%', 0.5),
  ('CCN(CC)S(=O)(=O)c1ccc(OC)c(Nc2ncc(-c3ccccc3)o2)c1', '%', -0.81),
  ('Fc1ccc(-c2nn3ccccc3c2-c2ccncc2)cc1', '%', 0.32);

Field: inhibition. Fill in for each record below.
1. COc1ccc2c(-c3ccnc(Nc4cccc(OC(F)(F)F)c4)n3)cnn2n1
2. COc1ccc(-c2nn3ncccc3c2-c2ccnc(Nc3ccc4c(c3)OCCO4)n2)cc1

Result:
0.71
2.13

Field: inhibition. Fill in for each record below.
1. Cc1ccc(O)cc1Nc1ccnc2cc(-c3ccccn3)ccc12
2. COc1cccc(-c2c[nH]c3c(N/N=C/c4ccncc4)ncnc23)c1
3. COC(=O)Nc1nc2ccc(Oc3ccc(NC(=O)Nc4cccc(Cl)c4)cc3)cc2[nH]1
4. FC(F)(F)c1cccc(-c2nn3ncccc3c2-c2ccnc(Nc3ccc4c(c3)OCCO4)n2)c1

Result:
1: 2.39; 2: 0.94; 3: -0.7; 4: 1.36

Origin of values: ChEMBL document CHEMBL1961873
